We begin with a simple list: items and their reported Cell Viability.
# Tested on: Colon cancer organoid
# METHOD DESCRIPTION: Optimized Dual-Glo assay to identify co-culture induced drug vulnerabilities using donated chemical probes and chemogenomics kinase set in O06 CRC organoid and F06 CAF mono and co-culture. […] Cell viability is reported both mono and co-culture models.
# Assay type: functional, Homo sapiens
# Parameters: dose or concentration left out as unconfirmed
# PARTICULARS: Culture type Co-Culture; Transduced with Renilla-dsRed lentivirus
Square brackets hold non-standard residues; d marks the D form. Peptide text beside a SMILES is read from it. Arg(Me) = CNC(=N)NCCC[C@H](N)C(=O)O; d4Pal = N[C@H](Cc1ccncc1)C(=O)O; azaGly = NNC(=O)O
Write it as a number; the unit % goes unstated.

Previously resolved entries follow.
O=C(NNS(=O)(=O)c1ccccc1F)c1cc(F)cc(-c2ccccn2)c1 : 108.11
CCN1CCN(c2ccc(Nc3cc(N(C)C(=O)Nc4c(Cl)c(OC)cc(OC)c4Cl)ncn3)cc2)CC1 : 125.024

// moving on: another record for Cell Viability
Provide the documented Cell Viability with Colon cancer organoid as the system for CNC(=N)NCCC[C@H](NC(=O)[C@H](CC(C)C)NC(=O)NNC(=O)[C@H](Cc1ccccc1)NC(=O)[C@H](CO)NC(=O)[C@H](CC(N)=O)NC(=O)[C@@H](Cc1ccncc1)NC(=O)[C@H](N)Cc1ccc(O)cc1)C(=O)N[C@@H](Cc1ccccc1)C(N)=O [KISS1-305] (H-[dY][d4Pal]NSF[azaGly]L[Arg(Me)]F-NH2) 118.904
